biological target: Human plasma kallikrein (Homo sapiens (Human), UniProt P03952); assay: Determination of the IC50 for plasma kallikrein (fluorogenic substrate H-DPro-Phe-Arg-AFC); details: class symbols A-D, read-out: IC50 (human PKal)
Sequence (P03952 391-638): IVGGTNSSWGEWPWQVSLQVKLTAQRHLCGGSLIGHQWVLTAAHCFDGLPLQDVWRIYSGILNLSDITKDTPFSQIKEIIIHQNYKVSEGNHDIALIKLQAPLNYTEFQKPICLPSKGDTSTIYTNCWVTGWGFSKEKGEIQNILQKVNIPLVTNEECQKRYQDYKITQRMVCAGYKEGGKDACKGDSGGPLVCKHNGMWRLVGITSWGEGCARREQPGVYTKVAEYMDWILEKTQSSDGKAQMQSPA
Sequence (P03952 20-390 partner): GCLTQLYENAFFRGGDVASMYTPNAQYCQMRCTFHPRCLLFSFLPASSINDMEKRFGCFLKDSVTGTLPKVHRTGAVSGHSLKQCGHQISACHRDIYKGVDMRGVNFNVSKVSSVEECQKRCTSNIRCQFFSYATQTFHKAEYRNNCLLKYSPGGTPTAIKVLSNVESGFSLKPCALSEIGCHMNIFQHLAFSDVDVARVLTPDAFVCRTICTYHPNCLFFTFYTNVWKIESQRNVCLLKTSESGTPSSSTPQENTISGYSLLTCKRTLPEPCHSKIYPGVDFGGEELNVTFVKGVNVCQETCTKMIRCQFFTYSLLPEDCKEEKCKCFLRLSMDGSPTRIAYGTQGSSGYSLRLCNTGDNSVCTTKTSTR
assay.readout: IC50

Look up and report IC50, with Human plasma kallikrein (Homo sapiens (Human), UniProt P03952) as system, for CCN1CCc2ccc(Cn3cc(C(=O)NCc4c(-n5cnc(C(F)(F)F)n5)ccc(OC)c4F)c(COC)n3)cc2C1 [Example 25]
< 10 nM

Look up and report IC50, with Human plasma kallikrein (Homo sapiens (Human), UniProt P03952) as system, for COCc1nn(Cc2ccc3c(c2)CN(C(C)C)CC3)cc1C(=O)NCc1c(-n2cnc(C(F)(F)F)n2)ccc(OC)c1F [Example 22]
< 10 nM

Look up and report IC50, with Human plasma kallikrein (Homo sapiens (Human), UniProt P03952) as system, for COCc1nn(Cc2ccc3c(c2)CN(C)CC3)cc1C(=O)NCc1c(-n2cncn2)ccc(OC)c1F [Example 7]
< 10 nM

Look up and report IC50, with Human plasma kallikrein (Homo sapiens (Human), UniProt P03952) as system, for COCc1nn(Cc2ccc3c(c2F)CCN(C)C3)cc1C(=O)NCc1c(-n2cc(C)nn2)ccc(OC)c1F [Example 114]
10 to 30 nM

Look up and report IC50, with Human plasma kallikrein (Homo sapiens (Human), UniProt P03952) as system, for COc1ccc(-n2cc(C)nn2)c(CNC(=O)c2cn(Cc3ccc4c(c3)CN(C)CC4)c(C3CC3)n2)c1F [Example 149]
10 to 30 nM

Look up and report IC50, with Human plasma kallikrein (Homo sapiens (Human), UniProt P03952) as system, for COc1ccc(-n2cc(C)nn2)c(CNC(=O)c2ccn(Cc3ccc4c(c3)CN(C)CC4)c(=O)c2)c1F [Example 159]
100 to 1000 nM

Look up and report IC50, with Human plasma kallikrein (Homo sapiens (Human), UniProt P03952) as system, for COCc1nn(Cc2ccc3c(c2)CN(C)CC3)cc1C(=O)NCc1c(-n2cnc(C(F)F)n2)ccc(Cl)c1F [Example 155]
100 to 1000 nM

Look up and report IC50, with Human plasma kallikrein (Homo sapiens (Human), UniProt P03952) as system, for COCc1nn(Cc2ccc3c(c2)CN(C)CC3)cc1C(=O)NCc1c(-n2cnc(C(F)F)n2)ccc(C(C)(F)F)c1F [Example 157]
100 to 1000 nM

Look up and report IC50, with Human plasma kallikrein (Homo sapiens (Human), UniProt P03952) as system, for CCN1CCc2cc(Cn3cc(C(=O)NCc4c(-n5cnc(C(F)(F)F)n5)ccc(OC)c4F)c(COC)n3)ccc2C1 [Example 51]
< 10 nM

Look up and report IC50, with Human plasma kallikrein (Homo sapiens (Human), UniProt P03952) as system, for COCc1nn(Cc2ccc3c(c2)CN(C2CC2)CC3)cc1C(=O)NCc1c(-n2cnc(C(F)F)n2)ccc(OC)c1F [Example 19]
< 10 nM

Look up and report IC50, with Human plasma kallikrein (Homo sapiens (Human), UniProt P03952) as system, for COCc1nn(Cc2ccc3c(c2)CN(C(C)C)CC3)cc1C(=O)NCc1c(-n2cc(C#N)cn2)ccc(OC)c1F [Example 30]
< 10 nM
